Target: kinases (Homo sapiens, UniProt P00519, M351T)
Construct: purchased Eurofins/DiscoveRx; host or cells: E. coli BL21-derived host (T7 phage display) for most kinases; HEK-293 for the rest
Assay: KINOMEscan kinase binding assay (Eurofins/DiscoveRx), % Ctrl
Conditions: 1 μM; ABL1(M351T)-phosphorylated
MEASURED QUANTITY: % Ctrl, ABL1(M351T)-phosphorylated (% Ctrl)
Value expressed in % Ctrl; do not type the unit.

1. Cc1cc2c([nH]1)/C=C1\C(=O)Nc3cc(Cl)c(cc31)OCCOCCN(C)C2=O [Ex. 131]    0.2

*Q* Given the compound Cc1cc2c([nH]1)/C=C1\C(=O)Nc3ccc(cc31)-c1c(C)n[nH]c1CNCCN(C)C2=O [Ex. 127] , what is its reported % Ctrl, ABL1(M351T)-phosphorylated?
*A* 0.2

*Q* Further, for Cc1cc2c([nH]1)/C=C1\C(=O)Nc3ccc(cc31)-c1ccnn1CCOCCNC2=O [Ex.39] ?
*A* 58

*Q* Another compound to look at: Cc1cc2c([nH]1)/C=C1\C(=O)Nc3ccc(cc31)-c1ccnn1CCOCCN(C)C2=O [Ex. 41]
*A* 53

*Q* Likewise for Cc1cc2c([nH]1)/C=C1\C(=O)Nc3ccc(cc31)CN(C)C(=O)COCCNC2=O [Ex.111] ?
*A* 98

====

Parameter % Ctrl, KIT(A829P): see the listing below.
Target: kinases (Homo sapiens, UniProt P10721, A829P)
Construct: purchased Eurofins/DiscoveRx; host or cells: E. coli BL21-derived host (T7 phage display) for most kinases; HEK-293 for the rest
Sequence (P10721 26-976 A829P): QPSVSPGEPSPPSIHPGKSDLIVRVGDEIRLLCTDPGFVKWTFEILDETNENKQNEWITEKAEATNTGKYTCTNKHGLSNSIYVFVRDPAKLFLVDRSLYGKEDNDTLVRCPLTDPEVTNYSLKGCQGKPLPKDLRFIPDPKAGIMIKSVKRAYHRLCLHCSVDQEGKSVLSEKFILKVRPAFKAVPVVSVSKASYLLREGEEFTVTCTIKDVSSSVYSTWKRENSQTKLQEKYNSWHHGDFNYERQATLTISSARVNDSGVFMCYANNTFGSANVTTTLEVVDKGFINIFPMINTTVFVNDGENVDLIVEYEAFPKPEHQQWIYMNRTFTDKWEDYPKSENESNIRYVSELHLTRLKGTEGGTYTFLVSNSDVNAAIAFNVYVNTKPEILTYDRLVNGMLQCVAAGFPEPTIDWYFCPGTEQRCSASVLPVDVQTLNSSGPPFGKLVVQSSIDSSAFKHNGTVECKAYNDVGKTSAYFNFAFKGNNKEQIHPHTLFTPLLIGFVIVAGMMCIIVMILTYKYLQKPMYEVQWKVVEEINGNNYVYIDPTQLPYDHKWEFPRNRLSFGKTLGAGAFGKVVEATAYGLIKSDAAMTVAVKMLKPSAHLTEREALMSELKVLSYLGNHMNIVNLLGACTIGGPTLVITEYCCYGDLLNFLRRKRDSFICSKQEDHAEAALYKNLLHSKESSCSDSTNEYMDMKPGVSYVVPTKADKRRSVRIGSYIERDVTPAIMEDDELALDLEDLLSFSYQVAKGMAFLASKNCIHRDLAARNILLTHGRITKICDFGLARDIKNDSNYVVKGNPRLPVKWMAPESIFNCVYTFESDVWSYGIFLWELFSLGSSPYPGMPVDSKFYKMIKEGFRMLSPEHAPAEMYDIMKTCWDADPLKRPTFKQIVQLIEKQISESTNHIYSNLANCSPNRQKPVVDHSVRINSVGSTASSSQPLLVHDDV
Assay: KINOMEscan kinase binding assay (Eurofins/DiscoveRx), % Ctrl
Conditions: target KIT(A829P); 1 μM
// units = % Ctrl; emit number, no label

Reference set (5 entries):
1) Cc1nn(C)c2c1-c1ccc3c(c1)/C(=C/c1[nH]ccc1C(=O)N(C)CCCO2)C(=O)N3    96
2) Cc1cc2c([nH]1)/C=C1\C(=O)Nc3ccc(cc31)-c1c(C)nn(C)c1COCCN(C)C2=O    92
3) CN1CCOCCOc2cc3c(cc2Cl)NC(=O)/C3=C\c2[nH]ccc2C1=O    51
4) Cc1cc2c([nH]1)/C=C1\C(=O)Nc3cc(Cl)c(cc31)OCCO[C@@H](C(=O)N1CCN(C)CC1)CN(C)C2=O    100
5) CN1CCSCCOc2cc3c(cc2Cl)NC(=O)/C3=C\c2[nH]ccc2C1=O    43

*Q* Reported % Ctrl, KIT(A829P) for `Cc1cc2c([nH]1)/C=C1\C(=O)Nc3ccc(cc31)-c1c(noc1C)CNCCN(C)C2=O` : what is it?
*A* 74

*Q* Another compound to check: `Cc1cc2c([nH]1)/C=C1\C(=O)Nc3cnc(cc31)-c1cn[nH]c1CNCCN(C)C2=O`
*A* 39

====

Biological target: kinases (Homo sapiens, UniProt P00533, DEL746-750)
Construct: purchased Eurofins/DiscoveRx; host or cells: E. coli BL21-derived host (T7 phage display) for most kinases; HEK-293 for the rest
Assay: KINOMEscan kinase binding assay (Eurofins/DiscoveRx), % Ctrl
Conditions: 1 μM; target EGFR(E746-A750del)
Hi! Could you tag entries with % Ctrl, EGFR(E746-A750del) below 40 % Ctrl as met, and those at or above as not met? Much appreciated.

Here are 4 molecules together with their reported answers.
1) CN1CCOc2cc3c(cc2Cl)NC(=O)/C3=C\c2[nH]ccc2C(=O)N(C)CC1    met
2) Cc1cc2c([nH]1)/C=C1\C(=O)Nc3cc(Cl)c(cc31)SCCOCCN(C)C2=O    met
3) Cc1cc2c([nH]1)/C=C1\C(=O)Nc3cnc(cc31)-c1cnn(C)c1CN(C)CCN(C)C2=O    not met
4) Cc1cc2c([nH]1)/C=C1\C(=O)Nc3ccc(cc31)-c1cnn(C)c1OCCCN(C)C2=O    not met

Shift focus to the following entry.
*Q* Does the reported % Ctrl, EGFR(E746-A750del) of `Cc1cc2c([nH]1)/C=C1\C(=O)Nc3ccc(cc31)-c1c(noc1C(C)C)COCCN(C)C2=O` stay below 40 % Ctrl?
*A* not met

====

Molecular target: kinases (Homo sapiens, UniProt P10721, T670I/V559D)
Construct: purchased Eurofins/DiscoveRx; host or cells: E. coli BL21-derived host (T7 phage display) for most kinases; HEK-293 for the rest
Sequence (P10721 26-976 V559D/T670I): as the sequence (P10721 26-976 A829P) above, with V534D, T645I, P804A counted along it
Test: KINOMEscan kinase binding assay (Eurofins/DiscoveRx), % Ctrl
Settings: 1 μM; KIT(V559D, T670I)
MEASURED QUANTITY: % Ctrl, KIT(V559D, T670I) (% Ctrl)
Provide the reading as a plain figure in % Ctrl.

The examples below pair each entry with its known result.
1. Cc1cc2c([nH]1)/C=C1\C(=O)Nc3ccc(cc31)-c1ccnn1CCNCCNC2=O    92
2. Cc1cc2c([nH]1)/C=C1\C(=O)Nc3ccc(cc31)-c1cnn(C)c1COCCN(C)C2=O    24
3. Cc1cc2c([nH]1)/C=C1\C(=O)Nc3cc(Cl)c(cc31)OCCOCCN(C)C2=O    0.05
4. CNC(=O)[C@H]1CN(C)C(=O)c2cc(C)[nH]c2/C=C2\C(=O)Nc3cc(Cl)c(cc32)OCCO1    6.3
5. Cc1cc2c([nH]1)/C=C1\C(=O)Nc3ccc(cc31)-c1c(C)n[nH]c1CNCCN(C)C2=O    62
6. Cc1cc2c([nH]1)/C=C1\C(=O)Nc3cc(Cl)c(cc31)OCCO[C@@H](C(=O)NC1CNC1)CN(C)C2=O    7.4
7. Cc1cc2c([nH]1)/C=C1\C(=O)Nc3ccc(cc31)O[C@@H](C)COCCN(C)C2=O    91
8. Cc1cc2c([nH]1)/C=C1\C(=O)Nc3ccc(cc31)-c1cnn(C)c1CN(C)CCN(C)C2=O    3.6

*Q* Any idea what its % Ctrl, KIT(V559D, T670I) is? The molecule is `Cc1cc2c([nH]1)/C=C1\C(=O)Nc3cc(Cl)c(cc31)OCCO[C@@H](C(=O)N[C@@H]1CCNC1)CN(C)C2=O`
*A* 3.2

*Q* Same read-out for `Cc1cc2c([nH]1)/C=C1\C(=O)Nc3ccc(cc31)-c1ccnn1CCOCCNC2=O` ?
*A* 85

*Q* Also `Cc1cc2c([nH]1)/C=C1\C(=O)Nc3ccc(cc31)-c1cnn(C)c1CNCCN(C)C2=O` ?
*A* 27

*Q* Please give the result for `Cc1cc2c([nH]1)/C=C1\C(=O)Nc3ccc(cc31)CN(C)C(=O)COCCNC2=O` too.
*A* 96

*Q* Can you handle `Cc1cc2c([nH]1)/C=C1\C(=O)Nc3ccc(cc31)OCCOCCN(C)C2=O` next?
*A* 34

*Q* Same question for `Cc1cc2c([nH]1)/C=C1\C(=O)Nc3ccc(nc31)-c1ccccc1OCCCNC2=O` please.
*A* 100

*Q* Then this molecule: `Cc1cc2c([nH]1)/C=C1\C(=O)Nc3cnc(cc31)-c1cnn(C)c1COCCNC2=O`
*A* 97

*Q* Same lookup for `Cc1cc2c([nH]1)/C=C1\C(=O)Nc3cc(Cl)c(cc31)OCCO[C@@H](C(=O)N(C)C)CN(C)C2=O` , please.
*A* 27

*Q* Would you kindly repeat that for `Cc1cc2c([nH]1)/C=C1\C(=O)Nc3cnc(nc31)N(C)CCCOCCN(C)C2=O` ?
*A* 100

====

System: kinases
Assay: KINOMEscan kinase binding assay (Eurofins/DiscoveRx), % Ctrl
Details: 1 μM; target EGFR(L747-T751del, Sins)
Parameter % Ctrl, EGFR(L747-T751del, Sins): see the listing below.

Solved cases (4 shown):
1) CN1CCOc2cc3c(cc2Cl)NC(=O)/C3=C\c2[nH]ccc2C(=O)N(C)CC1    45 % Ctrl
2) Cc1cc2c([nH]1)/C=C1\C(=O)Nc3cc(Cl)c(cc31)SCCOCCN(C)C2=O    30 % Ctrl
3) Cc1cc2c([nH]1)/C=C1\C(=O)Nc3ccc(cc31)-c1c(noc1C(C)C)COCCN(C)C2=O    93 % Ctrl
4) Cc1cc2c([nH]1)/C=C1\C(=O)Nc3ccc(cc31)-c1cnn(C)c1OCCCN(C)C2=O    90 % Ctrl

*Q* I would be grateful if you could share the reported % Ctrl, EGFR(L747-T751del, Sins) for `Cc1cc2c([nH]1)/C=C1\C(=O)Nc3cnc(cc31)-c1cnn(C)c1CN(C)CCN(C)C2=O` .
*A* 43 % Ctrl

====

Molecular target: kinases (Homo sapiens, UniProt P07949, V804L)
Construct: purchased Eurofins/DiscoveRx; host or cells: E. coli BL21-derived host (T7 phage display) for most kinases; HEK-293 for the rest
Sequence (P07949 29-1114 V804L): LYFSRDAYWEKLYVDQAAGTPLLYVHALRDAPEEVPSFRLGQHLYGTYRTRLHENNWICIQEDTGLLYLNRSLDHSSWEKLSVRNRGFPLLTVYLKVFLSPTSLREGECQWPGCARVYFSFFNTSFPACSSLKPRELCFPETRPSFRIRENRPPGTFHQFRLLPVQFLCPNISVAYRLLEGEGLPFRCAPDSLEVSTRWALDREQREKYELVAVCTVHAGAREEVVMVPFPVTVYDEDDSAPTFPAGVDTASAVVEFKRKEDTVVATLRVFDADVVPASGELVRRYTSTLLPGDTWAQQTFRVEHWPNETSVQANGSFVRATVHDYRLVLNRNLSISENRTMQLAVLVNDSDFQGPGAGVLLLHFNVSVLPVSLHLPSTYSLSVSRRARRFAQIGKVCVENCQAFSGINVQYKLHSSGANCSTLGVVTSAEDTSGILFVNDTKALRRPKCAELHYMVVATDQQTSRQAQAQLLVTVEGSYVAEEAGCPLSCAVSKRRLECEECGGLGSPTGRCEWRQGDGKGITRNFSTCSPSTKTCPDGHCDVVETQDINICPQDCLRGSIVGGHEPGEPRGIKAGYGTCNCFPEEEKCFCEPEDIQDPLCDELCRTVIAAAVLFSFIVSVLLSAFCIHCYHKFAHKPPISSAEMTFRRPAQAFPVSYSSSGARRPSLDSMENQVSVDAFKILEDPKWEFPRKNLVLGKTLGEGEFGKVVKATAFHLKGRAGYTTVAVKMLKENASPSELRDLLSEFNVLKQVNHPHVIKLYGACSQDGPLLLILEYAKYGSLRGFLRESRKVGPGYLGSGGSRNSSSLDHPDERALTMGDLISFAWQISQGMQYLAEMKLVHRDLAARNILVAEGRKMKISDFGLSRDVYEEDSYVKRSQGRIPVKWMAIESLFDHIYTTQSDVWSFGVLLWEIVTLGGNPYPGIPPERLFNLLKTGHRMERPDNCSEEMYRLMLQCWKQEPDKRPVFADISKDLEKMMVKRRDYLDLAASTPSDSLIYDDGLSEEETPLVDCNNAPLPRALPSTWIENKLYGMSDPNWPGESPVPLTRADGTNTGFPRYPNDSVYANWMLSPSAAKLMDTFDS
Test: KINOMEscan kinase binding assay (Eurofins/DiscoveRx), % Ctrl
Conditions: 1 μM; RET(V804L)
MEASURED QUANTITY: % Ctrl, RET(V804L)

1. Cc1cc2c([nH]1)/C=C1\C(=O)Nc3ccc(cc31)-c1cnn(C)c1CN(C)CCN(C)C2=O    0 % Ctrl

*Q* Look up % Ctrl, RET(V804L): `Cc1cc2c([nH]1)/C=C1\C(=O)Nc3ccc(cc31)OCCOCCN(C)C2=O`
*A* 3.8 % Ctrl

*Q* Next record, please: `Cc1cc2c([nH]1)/C=C1\C(=O)Nc3cc(Cl)c(cc31)OCCO[C@@H](C(=O)NC1CCNCC1)CN(C)C2=O`
*A* 55 % Ctrl

*Q* Now the same for `Cc1cc2c([nH]1)/C=C1\C(=O)Nc3ccc(cc31)-c1cnn(C)c1COCCN(C)C2=O`
*A* 0 % Ctrl

*Q* Also `Cc1cc2c([nH]1)/C=C1\C(=O)Nc3ccc(cc31)-c1c(noc1C)COCCN(C)C2=O` , if possible.
*A* 56 % Ctrl
